molecular target: MMP-8 (Homo sapiens); construct: In regard to MMP-8, catalytic domain (^99Phe˜^262Gly) was amplified with PCR; His-tag; enterokinase digestion-site; experiment: Assay for inhibitory activities on MMPs (fluorogenic peptide substrate), MMP-8
Sequence (P22894 99-262): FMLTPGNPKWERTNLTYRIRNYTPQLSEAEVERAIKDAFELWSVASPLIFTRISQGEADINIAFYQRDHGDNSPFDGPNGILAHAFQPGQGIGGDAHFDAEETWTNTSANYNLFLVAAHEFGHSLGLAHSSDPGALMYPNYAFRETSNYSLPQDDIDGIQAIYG
pIC50: −log10 of the molar value.
Short version: pIC50 at least 7 is label 1, less is label 0.

Example entries begin here.
COMPOUND | LABEL VALUE
Cc1ccc(C(=O)Nc2ccc(-c3ccc(S(=O)(=O)N[C@H](C)C(=O)O)cc3)cc2)cc1 | label 0
O=C(Nc1ccc(-c2ccc(S(=O)(=O)N[C@@H](Cc3ccccc3)C(=O)O)cc2)cc1)c1ccc2ccccc2c1 | label 0
O=C(/C=C/c1ccccc1)Nc1ccc(-c2ccc(S(=O)(=O)N[C@H](Cc3ccccc3)C(=O)O)cc2)cc1 | label 0
COc1ccc2cc(C#Cc3ccc(-c4ccc(S(=O)(=O)N[C@@H](CO)C(=O)O)cc4)cc3)ccc2c1 | label 0
COCC(NS(=O)(=O)c1ccc(-c2ccc(C#Cc3ccc4cc(OC)ccc4c3)cc2)cc1)C(=O)O (stereo not drawn) | label 0
O=C(O)[C@@H](CC1CCCCC1)NS(=O)(=O)c1ccc(-c2ccc(C#Cc3ccc4ccccc4c3)cc2)cc1 | label 0
O=C(Nc1ccc(-c2ccc(S(=O)(=O)N[C@H](Cc3ccccc3)C(=O)O)cc2)cc1)c1ccc2ccccc2c1 | label 0
COc1ccc2cc(C#Cc3ccc(-c4ccc(S(=O)(=O)N[C@H](C(=O)O)C(C)C)cc4)cc3)ccc2c1 | label 1
COc1ccc(C(=O)Nc2ccc(-c3ccc(S(=O)(=O)N[C@@H](CCSC)C(=O)O)cc3)cc2)cc1OC | label 0
CCC(C)[C@H](NS(=O)(=O)c1ccc(-c2ccc(C#Cc3ccc4cc(OC)ccc4c3)cc2)cc1)C(=O)O (stereo partly drawn) | label 1

State whether the measured pIC50 reaches 7, counting equality as reaching it, for `COc1ccc2cc(C(=O)Nc3ccc(-c4ccc(S(=O)(=O)N[C@H](Cc5ccccc5)C(=O)O)cc4)cc3)ccc2c1` label 0

State whether the measured pIC50 reaches 7, counting equality as reaching it, for `COc1cccc(C(=O)Nc2ccc(-c3ccc(S(=O)(=O)N[C@H](Cc4ccccc4)C(=O)O)cc3)cc2)c1` label 0

State whether the measured pIC50 reaches 7, counting equality as reaching it, for `CC(C)[C@@H](NS(=O)(=O)c1ccc(-c2ccc(C#Cc3ccc4ccccc4c3)cc2)cc1)C(=O)O` label 1

State whether the measured pIC50 reaches 7, counting equality as reaching it, for `O=C(Nc1ccc(-c2ccc(S(=O)(=O)N[C@H](Cc3ccccc3)C(=O)O)s2)cc1)c1ccc2ccccc2c1` label 0

State whether the measured pIC50 reaches 7, counting equality as reaching it, for `COc1ccc2cc(C#Cc3ccc(-c4ccc(S(=O)(=O)N[C@H](CCSC)C(=O)O)cc4)cc3)ccc2c1` label 0
